Below: a set of entries, each annotated with reported IC50, cytotoxic effect on Mia PaCa-2 cells (CellTiter-Glo, 72 h).
Biological target: TRAILR2 receptor on the surface of human tumor cells (human, UniProt O14763 56-440)
Assay: cell-based or functional assay
readout_label: IC50, cytotoxic effect on Mia PaCa-2 cells (CellTiter-Glo, 72 h) (µg/mL)

binder="Zaptuzumab (antibody, V domains shown) VH: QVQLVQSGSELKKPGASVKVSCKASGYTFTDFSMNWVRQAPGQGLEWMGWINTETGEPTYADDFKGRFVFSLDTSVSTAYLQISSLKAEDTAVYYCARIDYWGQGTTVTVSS VL: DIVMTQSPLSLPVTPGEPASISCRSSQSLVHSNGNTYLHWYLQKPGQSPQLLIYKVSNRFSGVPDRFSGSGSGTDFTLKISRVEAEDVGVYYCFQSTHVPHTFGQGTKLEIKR" result_value=2.9
binder="Zapadcine-3b (antibody, V domains shown, MMAE coupled through linker PY-MAA by thiol bridge coupling, non-cleavable; positions not given) VH: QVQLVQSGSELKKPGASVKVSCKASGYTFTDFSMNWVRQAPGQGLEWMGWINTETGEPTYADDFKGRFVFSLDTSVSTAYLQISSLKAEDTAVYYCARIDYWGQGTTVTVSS VL: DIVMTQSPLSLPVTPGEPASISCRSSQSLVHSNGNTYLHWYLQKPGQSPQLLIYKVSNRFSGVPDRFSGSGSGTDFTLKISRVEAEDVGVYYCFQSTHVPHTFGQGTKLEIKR" result_value=0.415
binder="Zapadcine-3c (antibody, V domains shown, MMAE coupled through linker MC-VC-PAB by thiol conventional coupling, cleavable; positions not given) VH: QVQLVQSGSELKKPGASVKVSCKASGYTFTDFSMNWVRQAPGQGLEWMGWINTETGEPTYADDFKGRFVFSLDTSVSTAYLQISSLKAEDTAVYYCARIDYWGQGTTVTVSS VL: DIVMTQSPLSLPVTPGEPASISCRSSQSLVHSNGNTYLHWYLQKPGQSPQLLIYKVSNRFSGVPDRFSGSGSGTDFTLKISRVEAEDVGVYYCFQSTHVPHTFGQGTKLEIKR" result_value=0.508
